# test-target: DCN1 (DCUND1) protein PONY domain (Homo sapiens (Human), UniProt Q96GG9)
# Sequence (Q96GG9 60-248): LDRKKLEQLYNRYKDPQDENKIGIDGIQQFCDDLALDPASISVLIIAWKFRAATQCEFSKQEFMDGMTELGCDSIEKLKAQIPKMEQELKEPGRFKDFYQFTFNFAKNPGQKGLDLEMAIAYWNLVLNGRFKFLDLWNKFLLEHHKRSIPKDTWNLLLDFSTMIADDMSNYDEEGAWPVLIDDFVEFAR
# assay-protocol: TR-FRET assay (binding to DCN-1, displacement of FAM-labeled probe)
# study-conditions: 24 hr after treatment with compound; read-out: TR FRET IC50 24 hr
pIC50: −log10 of the molar value.

molecule	test-target	pIC50
CCN1C(=O)[C@@H](NC(=O)c2nccc(C(F)(F)F)n2)[C@H](c2cccc(NC(=O)/C=C/CN(C)C)n2)c2cnn(-c3ccccc3)c21 (racemic) [Compound I-265]	DCN1 (DCUND1) protein PONY domain (Homo sapiens (Human), UniProt Q96GG9)	6.00 to 6.70
C=C(CN1CC2CCC(C1)O2)C(=O)NCc1cccc([C@@H]2c3cnn(-c4ccccc4)c3N(CC)C(=O)[C@H]2NC(=O)c2cccc(C(F)(F)F)c2)c1 [Compound I-136]	DCN1 (DCUND1) protein PONY domain (Homo sapiens (Human), UniProt Q96GG9)	≥ 6.70
C=C(C(=O)NCc1cccc([C@@H]2c3cnn(-c4ccccc4)c3N(CC)C(=O)[C@H]2NC(=O)c2nccc(C(F)(F)F)n2)c1)C(C)N1CC2(COC2)C1 (some centres unmarked) [Compound I-221]	DCN1 (DCUND1) protein PONY domain (Homo sapiens (Human), UniProt Q96GG9)	≥ 6.70
C/C=C(\CN1CCC1)C(=O)NCc1cccc([C@@H]2c3cnn(-c4ccccc4)c3N(CC)C(=O)[C@H]2NC(=O)c2cccc(C(F)(F)F)c2)c1 [Compound I-341]	DCN1 (DCUND1) protein PONY domain (Homo sapiens (Human), UniProt Q96GG9)	≥ 6.70
CCN1C(=O)[C@@H](NC(=O)c2cccc(C(F)(F)F)c2)[C@H](c2cccc(CNC(=O)C3=CCN(C)C3)c2)c2cnn(-c3ccccc3)c21 [Compound I-54]	DCN1 (DCUND1) protein PONY domain (Homo sapiens (Human), UniProt Q96GG9)	≥ 6.70

====

# test-target: DCN1 (DCUND1) protein PONY domain (Homo sapiens (Human), UniProt Q96GG9)
# assay-protocol: TR-FRET assay (binding to DCN-1, displacement of FAM-labeled probe)
# study-conditions: 24 hr after treatment with compound; read-out: TR FRET IC50 24 hr
Documented IC50 across a set of compounds

compound	IC50
C/C=C(/CN1CCN(C2COC2)CC1)C(=O)NCc1cccc([C@@H]2c3cnn(-c4ccccc4)c3N(CC)C(=O)[C@H]2NC(=O)c2nccc(C(F)(F)F)n2)c1 (racemic) [Compound I-257]	1 to 3 µM
CCN1C(=O)[C@H](NC(=O)c2cccc(C(F)(F)F)c2)[C@@H](c2cccc(NC(=O)/C(C#N)=C/C(C)C)c2)c2c(C)nn(-c3ccccc3)c21 (racemic) [Compound I-46]	≤ 0.2 µM
CCN1C(=O)[C@@H](NC(=O)c2cccc(C(F)(F)F)c2)[C@H](c2cccc(NC(=O)/C=C(\C)C(=O)OC)c2)c2c(C)nn(-c3ccccc3)c21 (racemic) [Compound I-157]	0.2 to 1 µM
CCN1C(=O)[C@H](NC(=O)c2cccc(C(F)(F)F)c2)[C@@H](c2cccc(NC(=O)[C@H](F)Cl)c2)c2c(C)nn(-c3ccccc3)c21 (mixture of isomers) [Compound I-150]	0.2 to 1 µM
C=C(CN1CC2(COC2)C1)C(=O)N(C)Cc1cccc([C@@H]2c3cnn(-c4ccccc4)c3N(CC)C(=O)[C@H]2NC(=O)c2cccc(C(F)(F)F)c2)c1 [Compound I-219]	≤ 0.2 µM
C=C(CN(C)C1COC1)C(=O)NCc1cccc([C@@H]2c3c(C)nn(-c4ccccc4)c3N(CC)C(=O)[C@H]2NC(=O)c2cccc(C(F)(F)F)c2)c1 [Compound I-312]	≤ 0.2 µM
CCN1C(=O)[C@H](NC(=O)c2cccc(C(F)(F)F)c2)[C@@H](c2cccc(N(C)C(=O)/C=C/CN(C)C)c2)c2cnn(-c3ccccc3)c21 (racemic) [Compound I-39]	1 to 3 µM
C=C(CN1CCC(F)(F)C1)C(=O)Nc1cccc([C@@H]2c3c(C)nn(-c4ccccc4)c3N(CC)C(=O)[C@H]2NC(=O)c2nccc(C(F)(F)F)n2)c1 [Compound I-228]	≤ 0.2 µM
C/C=C(\CN(C)C1COC1)C(=O)NCc1cccc([C@@H]2c3cnn(-c4ccccc4)c3N(CC)C(=O)[C@H]2NC(=O)c2csc(C(F)(F)F)n2)c1 [Compound I-365]	≤ 0.2 µM
C/C=C(/C)S(=O)(=O)Nc1cccc([C@H]2c3c(C)nn(-c4ccccc4)c3N(CC)C(=O)[C@@H]2NC(=O)c2cccc(C(F)(F)F)c2)c1 (racemic) [Compound I-127]	1 to 3 µM
C=C(CN1CC2(COC2)C1)C(=O)NCc1cccc([C@@H]2c3cnn(-c4ccccc4)c3N(CC)C(=O)[C@H]2NC(=O)c2nccc(C(F)(F)F)n2)c1 [Compound I-161]	≤ 0.2 µM
